Tested on: Klebsiella pneumoniae
Experimental protocol: Antibacterial activity against Klebsiella pneumoniae ATCC10031 by broth microdilution method
Format: functional
Measured property: MIC (µg/mL)
Provide only the numeric value, understood in µg/mL.

The cases that follow already have their MIC on record.
CCCCCc1ccc(-c2cn(CC(=O)NNC(=O)O[C@H]3[C@H](C)[C@@H](O[C@@H]4O[C@H](C)C[C@H](N(C)C)[C@H]4O)[C@](C)(O)C[C@@H](C)CN(C)[C@H](C)[C@H]4OC(=O)O[C@]4(C)[C@@H](CC)OC(=O)[C@@H]3C)nn2)cc1: 32
CC[C@H]1OC(=O)[C@H](C)[C@@H](OC(=O)NNC(=O)Cn2cc(-c3ccc(OC)cc3)nn2)[C@H](C)[C@@H](O[C@@H]2O[C@H](C)C[C@H](N(C)C)[C@H]2O)[C@](C)(O)C[C@@H](C)CN(C)[C@H](C)[C@H]2OC(=O)O[C@@]21C: 32
CC[C@H]1OC(=O)[C@H](C)[C@@H](OC(=O)NNC(=O)Cn2cc(-c3cccc(Cl)c3)nn2)[C@H](C)[C@@H](O[C@@H]2O[C@H](C)C[C@H](N(C)C)[C@H]2O)[C@](C)(O)C[C@@H](C)CN(C)[C@H](C)[C@H]2OC(=O)O[C@@]21C: 16
CC[C@H]1OC(=O)[C@H](C)[C@@H](OC(=O)NNC(=O)Cn2cc(-c3cccc(C)c3)nn2)[C@H](C)[C@@H](O[C@@H]2O[C@H](C)C[C@H](N(C)C)[C@H]2O)[C@](C)(O)C[C@@H](C)CN(C)[C@H](C)[C@H]2OC(=O)O[C@@]21C: 16

[ask] State the recorded MIC for this entry: `CCOc1ccc(-c2cn(CC(=O)NNC(=O)O[C@H]3[C@H](C)[C@@H](O[C@@H]4O[C@H](C)C[C@H](N(C)C)[C@H]4O)[C@](C)(O)C[C@@H](C)CN(C)[C@H](C)[C@H]4OC(=O)O[C@]4(C)[C@@H](CC)OC(=O)[C@@H]3C)nn2)cc1`
[reply] 32

[ask] State the recorded MIC for this entry: `CCCCc1ccc(-c2cn(CC(=O)NNC(=O)O[C@H]3[C@H](C)[C@@H](O[C@@H]4O[C@H](C)C[C@H](N(C)C)[C@H]4O)[C@](C)(O)C[C@@H](C)CN(C)[C@H](C)[C@H]4OC(=O)O[C@]4(C)[C@@H](CC)OC(=O)[C@@H]3C)nn2)cc1`
[reply] 16

* * *

Test system: Staphylococcus aureus
Experimental protocol: Antibacterial activity against penicillin-resistant Staphylococcus aureus by broth microdilution method
Format: functional
Measured property: MIC

The cases that follow already have their MIC on record.
CCCOc1ccc(-c2cn(CC(=O)NNC(=O)O[C@H]3[C@H](C)[C@@H](O[C@@H]4O[C@H](C)C[C@H](N(C)C)[C@H]4O)[C@](C)(O)C[C@@H](C)CN(C)[C@H](C)[C@H]4OC(=O)O[C@]4(C)[C@@H](CC)OC(=O)[C@@H]3C)nn2)cc1: 64 µg/mL
CC[C@H]1OC(=O)[C@H](C)[C@@H](OC(=O)NNC(=O)Cn2cc(-c3ccc(C(C)(C)C)cc3)nn2)[C@H](C)[C@@H](O[C@@H]2O[C@H](C)C[C@H](N(C)C)[C@H]2O)[C@](C)(O)C[C@@H](C)CN(C)[C@H](C)[C@H]2OC(=O)O[C@@]21C: 32 µg/mL
CC[C@H]1OC(=O)[C@H](C)[C@@H](OC(=O)NNC(=O)Cn2cc(-c3cccc(F)c3)nn2)[C@H](C)[C@@H](O[C@@H]2O[C@H](C)C[C@H](N(C)C)[C@H]2O)[C@](C)(O)C[C@@H](C)CN(C)[C@H](C)[C@H]2OC(=O)O[C@@]21C: 256 µg/mL

[ask] State the recorded MIC for this entry: CC[C@H]1OC(=O)[C@H](C)[C@@H](O[C@H]2C[C@@](C)(OC)[C@@H](O)[C@H](C)O2)[C@H](C)[C@@H](O[C@@H]2O[C@H](C)C[C@H](N(C)C)[C@H]2O)[C@](C)(O)C[C@@H](C)CN(C)[C@H](C)[C@@H](O)[C@]1(C)O [AZITHROMYCIN]
[reply] > 256 µg/mL
